# Subject Of Test: T1, histidine-tagged human Siglec-7 (NovoProtein) (human, UniProt Q9Y286 19-353)
# T1 construct: Bought protein; also called recombinant human Siglec-7; recombinant Siglec-7; not shown: histidine tag
# Assay Summary: BLI, antibody captured
Please note: rule met applies when fold improvement over S7AB-H8 is 4 fold or greater, and rule not met applies otherwise.

Record excerpt, results attached:
{"columns": ["Binder", "Answer Label"],
 "data": [
  ["S7AB-H8.24 (antibody, V domains shown) VH: QVQLVQSGAEVKKPGASVKVSCKASGYAFTAAWMNWVRQAPGQGLEWIGRIFPGLGHTNYAQKFQGRATLTEDTSTSTAYMELSSLRSEDTAVYYCARDYSDYYFDYWGQGTLVTVSS VL: DIQMTQSPSSLSASVGDRVTITCRASEDINTYLNWYQQKPGKAPKLLIYYTSRLHSGVPSRFSGSGSGTDYTLTISSLQPEDFATYYCQQGGTLPWTFGQGTKLEIK", "rule met"],
  ["S7AB-H8.26 (antibody, V domains shown) VH: QVQLVQSGAEVKKPGASVKVSCKASGYAFTETWMNWVRQAPGQGLEWIGRIFPGLGHTNYAQKFQGRATLTEDTSTSTAYMELSSLRSEDTAVYYCARDYSDYYFDYWGQGTLVTVSS VL: DIQMTQSPSSLSASVGDRVTITCRASQDANTYLNWYQQKPGKAPKLLIYYTSRLHSGVPSRFSGSGSGTDYTLTISSLQPEDFATYYCQQGNLLPWTFGQGTKLEIK", "rule not met"]
]}

Does the binder S7AB-H8.21 (antibody, V domains shown) VH: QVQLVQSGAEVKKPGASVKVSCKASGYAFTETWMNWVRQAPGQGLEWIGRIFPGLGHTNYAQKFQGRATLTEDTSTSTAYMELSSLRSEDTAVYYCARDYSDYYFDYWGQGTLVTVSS VL: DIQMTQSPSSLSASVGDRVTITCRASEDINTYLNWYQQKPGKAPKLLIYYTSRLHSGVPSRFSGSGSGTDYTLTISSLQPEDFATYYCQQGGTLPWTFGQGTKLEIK have recorded fold improvement over S7AB-H8 that is 4 fold or more?
rule not met

Is the recorded value of fold improvement over S7AB-H8 equal to or greater than 4 fold for this binder? S7AB-H8.34 (antibody, V domains shown) VH: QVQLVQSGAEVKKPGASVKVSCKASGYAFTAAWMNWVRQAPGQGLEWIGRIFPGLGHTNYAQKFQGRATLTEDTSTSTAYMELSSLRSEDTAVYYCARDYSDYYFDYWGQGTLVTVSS VL: DIQMTQSPSSLSASVGDRVTITCRGSQDINTYLNWYQQKPGKAPKLLIYYTSRLHSGVPSRFSGSGSGTDYTLTISSLQPEDFATYYCQQGGTLPWTFGQGTKLEIK
rule met

Check if fold improvement over S7AB-H8 >= 4 fold (inclusive). Item: S7AB-H8.33 (antibody, V domains shown) VH: QVQLVQSGAEVKKPGASVKVSCKASGYAFTGYWMNWVRQAPGQGLEWIGRIFPGLGHTNYAQKFQGRATLTEDTSTSTAYMELSSLRSEDTAVYYCARDYSDYYFDYWGQGTLVTVSS VL: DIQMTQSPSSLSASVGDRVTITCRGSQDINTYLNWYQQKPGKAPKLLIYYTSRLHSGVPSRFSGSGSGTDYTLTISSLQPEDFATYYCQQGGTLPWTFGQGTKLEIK
rule not met
